Molecular target: T1, Human Notch4-NRR domain Fc fusion protein (human, UniProt Q99466 1046-1445, limits assumed)
T1 construct: Expressed in a CHO cell line, used from culture supernatant; 1 is named; also called Human Notch4-NRR Fusion Protein; not shown: Fc
T1 sequence: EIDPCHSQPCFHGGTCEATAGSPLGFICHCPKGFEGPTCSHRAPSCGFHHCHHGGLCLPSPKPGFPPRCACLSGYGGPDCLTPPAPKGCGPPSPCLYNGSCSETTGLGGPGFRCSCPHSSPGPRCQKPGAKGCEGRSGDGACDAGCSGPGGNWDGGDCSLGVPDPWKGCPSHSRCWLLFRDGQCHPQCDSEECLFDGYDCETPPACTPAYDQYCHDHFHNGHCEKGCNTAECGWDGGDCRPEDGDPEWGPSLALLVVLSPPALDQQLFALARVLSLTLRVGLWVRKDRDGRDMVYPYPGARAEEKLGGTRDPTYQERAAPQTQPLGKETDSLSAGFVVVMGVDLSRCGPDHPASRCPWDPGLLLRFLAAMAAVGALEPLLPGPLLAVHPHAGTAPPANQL
Assay: SPR (Biacore) as for Table 30; Notch4-NRR-Fc captured, antibody injected; averaged, N=2
Reported values of pKd for individual entries
A value of pKd is the negative decimal logarithm of a concentration given in moles per litre.

These recorded examples may help you get a feel for the data.
BINDER	pKd
HK1L3 (antibody, human IgG2, kappa, V domains shown, Humanized IgG2 (V234A, G237A)/κ; also called No. 8) VH: EVQLVESGGGLVQPGGSLRLSCAASGFTFSSYGMSWVRQAPGKGLEYVSTINSNGGRTYYPDSVKGRFTISRDNSKNTLYLQMGSLRAEDMAVYYCARDQGFAYWGQGTLVTVSS VL: EIVMTQSPATLSVSPGERATLSCKASQDVGTAVAWYQQKPGQAPRLLIYWASTRHTGIPARFSGSGSGTEFTLTISSLQSEDFAVYYCQQYSSYPWTFGQGTKVEIKR	8.31
HA1L2 (antibody, human IgG2, kappa, V domains shown, Humanized IgG2 (V234A, G237A)/κ; also called No. 22) VH: EVQLVESGGGLVQPGGSLRLSCAASGFTFSSYGMSWVRQAPGKGLEYVSTINSNGGRTYYANSVKGRFTISRDNSKNTLYLQMGSLRAEDMAVYYCARDQGFAYWGQGTLVTVSS VL: DIQMTQSPSSLSASVGDRVTITCKASQDVGTAVAWYQQKPGKVPKLLIYWASTRHTGVPSRFSGSGSGTDFTLTISSLQPEDVATYFCQQYSSYPWTFGQGTKVEIKR	7.73
HA1L5 (antibody, human IgG2, kappa, V domains shown, Humanized IgG2 (V234A, G237A)/κ; also called No. 25) VH: EVQLVESGGGLVQPGGSLRLSCAASGFTFSSYGMSWVRQAPGKGLEYVSTINSNGGRTYYANSVKGRFTISRDNSKNTLYLQMGSLRAEDMAVYYCARDQGFAYWGQGTLVTVSS VL: DIQMTQSPSSLSASVGDRVTITCKASQDVGTAVAWYQQKPGKSPKLLIYWASTRHTGVPSRFSGSGSGTDFTLTISSLQPEDVATYFCQQYSSYPWTFGQGTKVEIKR	8.14

Now consider a different binder.
Provide pKd value for the following binder: HK1L4 (antibody, human IgG2, kappa, V domains shown, Humanized IgG2 (V234A, G237A)/κ; also called No. 9) VH: EVQLVESGGGLVQPGGSLRLSCAASGFTFSSYGMSWVRQAPGKGLEYVSTINSNGGRTYYPDSVKGRFTISRDNSKNTLYLQMGSLRAEDMAVYYCARDQGFAYWGQGTLVTVSS VL: EIVMTQSPATLSVSPGERATLSCKASQDVGTAVAWYQQKPGQAPRLLIYWASTRHTGIPARFSGSGSGTEFTLTISSLQSEDFAVYFCQQYSSYPWTFGQGTKVEIKR
8.36

Origin of measurements: patent US20170096493A1
